B1: POLD4 (parent)
chain: ITDSYPVVKRREGPAGHSKGELAP

Variants of: B1
experiment description: protein stability index of a GFP-peptide fusion (GPS, HEK-293T) (PSI 1-6); higher = more stable;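 also: lentivirally expressed fusions sorted by FACS into six bins by GFP to DsRed ratio, PSI derived from sequencing read proportions per bin multiplied by bin number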
conditions: c terminus: a fixed tail appended
protein stability index reference

K19T = 3.62

Just so you know, measured protein stability index for V8Y came out at 4.34

variant D3W , protein stability index observed: 1.99

R10H has a reported protein stability index of 4.33

Sure, the documented protein stability index for G13D is 3.94

Per the record, G16F has protein stability index of 3.33

Quick note, protein stability index for P6D landed at 5.12

Entry under test: E21V . Its protein stability index was 3.03

Notebook: V8Q , protein stability index read as 3.1

Consider G16R . Its measured protein stability index is 3.64

According to the records, this variant S4Y displays protein stability index of 2.57

P14D yielded protein stability index of 2.94

protein stability index reading for D3F : 3.39

GET /value?item= S18D &field=protein stability index returns 4.01

variant V7C , protein stability index observed: 3.63

protein stability index in this record for V8F : 4.32

Value of measured protein stability index for the entry A15C : 2.8

So, S18H ? Its protein stability index was 3.35

Form field protein stability index, entry G16K : 3.07
